pIC50: −log10 of the molar value.
pIC50 values for HPK1 (Homo sapiens (Human)), compiled from several publications.

>>> print(df.to_string())
                                   molecule        result
0  CN1CCN(c2ccc(Nc3cnc(-c4ccnc(N(C)C)c4)c4c3C(=O)NC4)nc2)CC1  5.30 to 6.00
1  CC1COc2c(-c3ccc(Nc4ccc(N5CCN(C)CC5)cn4)c4c3CNC4=O)cnn2C1 (stereo in doubt)  6.00 to 7.00
2  CN1CCN(c2cccc(Nc3ccc(-c4cnc5cc(F)ccn45)c4c3C(=O)NC4)n2)CC1        > 7.00
3  Cc1c(-c2cc3nc(Nc4ccc(CS(C)(=O)=O)c(F)c4)ncc3c(N)c2F)cnc2c1NCCO2         10.18
4  CN1CCN(c2ccc(Nc3ccc(-c4ccnnc4)c4c3C(=O)NC4)nc2)CC1        > 6.00
5  CN(C)C(C)(C)[C@@H]1CN(c2ccc(Nc3ccc(-c4cnc5cnccn45)c4c3C(=O)NC4)nc2)CCO1        > 7.00
6  O=C1NCc2c(-c3cnc4cc(F)ccn34)ccc(Nc3ccc(N4CCC[C@H](N5CCOCC5)C4)cn3)c21        > 7.00
7  CN1CCN2c3ccc(-c4n[nH]c5cc(C#N)c(-c6cccnc6)cc45)cc3OCC2C1 (stereo not shown)        ≥ 8.00
8  COC1CN(Cc2nc(Nc3ccc(-c4cnc5cc(F)ccn45)c4c3C(=O)NC4)ccc2[C@H]2CCOC2)C1        > 7.00
9  NC(=O)c1cnc(Nc2cccc(C3CC3)c2)nc1Nc1cccc2c1CCNC2=O          8.91

Please list pIC50 recorded for the molecule Cc1ccc(NC(=O)c2cc(C(F)(F)F)ccn2)cc1C1=Cc2cnc(NC3CCOCC3)nc2N2CCN=C12
> 7.00

Check the records and state pIC50 for COc1cc2c(cc1Nc1ncc3ccc(Nc4cccc(S(C)(=O)=O)c4)cc3n1)CN(C)CC2
7.74

Name the recorded pIC50 of the item Cc1ccc(Nc2cnc(-c3ccnc4c3ccn4C)c3c2C(=O)NC3)nc1N(C)C1CNC1 in your answer.
< 6.00
